# test-target: immobilized AChE (Electrophorus electricus, UniProt O42275)
# Construct: purchased Sigma (St. Louis, MO, USA)
# Sequence (O42275 24-633): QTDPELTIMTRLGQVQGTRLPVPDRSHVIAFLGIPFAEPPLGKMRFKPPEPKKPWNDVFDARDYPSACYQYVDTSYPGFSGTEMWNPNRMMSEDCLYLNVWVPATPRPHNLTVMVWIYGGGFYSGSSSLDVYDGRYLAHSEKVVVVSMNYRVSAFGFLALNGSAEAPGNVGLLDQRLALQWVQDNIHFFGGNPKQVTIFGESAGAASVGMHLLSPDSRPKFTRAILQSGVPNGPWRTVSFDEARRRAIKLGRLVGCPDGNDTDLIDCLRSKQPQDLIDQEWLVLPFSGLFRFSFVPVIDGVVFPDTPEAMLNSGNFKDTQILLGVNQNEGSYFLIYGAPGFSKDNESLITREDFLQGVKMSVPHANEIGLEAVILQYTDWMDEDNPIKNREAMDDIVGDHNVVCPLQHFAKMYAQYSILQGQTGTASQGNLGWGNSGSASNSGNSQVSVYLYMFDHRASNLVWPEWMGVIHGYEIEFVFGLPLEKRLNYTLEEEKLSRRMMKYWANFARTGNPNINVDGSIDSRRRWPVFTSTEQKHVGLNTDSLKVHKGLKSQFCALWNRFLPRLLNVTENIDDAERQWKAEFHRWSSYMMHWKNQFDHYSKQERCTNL
# experiment-summary: biochemical
# Type: binding
# run-parameters: pair tannic acid (molecule 1) and ATCI (molecule 2), 1:1; read-out: Molecule 2 KD
quantity-measured: Kd (nM)
State the answer as a number, implicitly in nM.

Tell me its Kd given CC(=O)SCC[N+](C)(C)C.[I-] [ATCI, acetylthiocholine iodide, reference compound] as the entry. 0.16

* * *

# test-target: immobilized AChE (Electrophorus electricus, UniProt O42275)
# Construct: purchased Sigma (St. Louis, MO, USA)
# experiment-summary: biochemical
# Type: binding
# run-parameters: read-out: Molecule 2 KD
quantity-measured: Kd (nM)
State the answer as a number, implicitly in nM.

Tell me its Kd given CC(=O)SCC[N+](C)(C)C.[I-] [ATCI, acetylthiocholine iodide, reference compound] as the entry. 9.89
